FYI, the data here is from patent US20250049896A1.

# maps each entry to its 100 nM Ag Bound (RU)
target: T1, hmm.hTfRC (REGN2431), human transferrin receptor extracellular domain with hexahistidine-myc-myc tag (human, UniProt P02786 89-760); assay: SPR (Biacore), mAb captured on anti-human Fc, 100 nM hTFR-mmh, 25 C
T1 construct: Monomeric recombinant protein, 79210 g/mol; also called hTFR-mmh; His-myc-myc-hTFRC ecto
T1 sequence (P02786 other isoform, or with tags, fused parts or gaps): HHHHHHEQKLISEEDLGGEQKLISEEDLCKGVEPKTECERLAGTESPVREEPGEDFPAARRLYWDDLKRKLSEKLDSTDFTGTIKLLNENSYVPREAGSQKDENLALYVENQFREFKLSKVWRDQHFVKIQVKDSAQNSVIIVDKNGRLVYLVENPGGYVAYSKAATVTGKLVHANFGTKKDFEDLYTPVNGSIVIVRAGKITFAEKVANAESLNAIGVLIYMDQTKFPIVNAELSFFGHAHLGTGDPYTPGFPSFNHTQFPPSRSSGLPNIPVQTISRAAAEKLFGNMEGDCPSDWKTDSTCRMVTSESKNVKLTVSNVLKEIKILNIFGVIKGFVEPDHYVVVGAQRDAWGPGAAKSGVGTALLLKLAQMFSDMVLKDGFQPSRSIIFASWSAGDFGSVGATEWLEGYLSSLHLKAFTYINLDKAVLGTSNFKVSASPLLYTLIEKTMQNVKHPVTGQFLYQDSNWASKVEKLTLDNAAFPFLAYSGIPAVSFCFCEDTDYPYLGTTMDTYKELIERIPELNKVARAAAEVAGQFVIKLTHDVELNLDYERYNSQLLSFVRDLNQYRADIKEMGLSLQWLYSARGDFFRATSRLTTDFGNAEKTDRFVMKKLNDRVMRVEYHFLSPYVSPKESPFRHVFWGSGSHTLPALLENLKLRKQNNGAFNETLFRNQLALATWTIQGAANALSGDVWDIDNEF
Please respond with the number in RU and leave the unit unwritten.

12808B (antibody, human IgG1, kappa, V domains shown, Tested as bivalent human IgG1 from CHO primary supernatant) VH: QLQLQESGPGLVKPSETLSLTCTVSGESISSNTYYWGWIRQPPGKGLEWIGSIDYSGTTNYNPSLKSRVTISVDTSRNHFSLRLRSVTAADTAVYYCAREWGNYGYYYGMDVWGQGTTVTVSS VL: DIQMTQSPSSLSASVGDRVTINCRASQGIRNDLGWYQQKPGKAPKRLIYAASSLQSGVPLRFSGSGSGTEFTLTINNLQPEDFATYYCLSHNSYPWTFGQGTKVEIKR; 964

Continue with the next binder.
Input line: Give 100 nM Ag Bound (RU) for 69340 (antibody, human IgG1, kappa, V domains shown, Tested as bivalent human IgG1 from CHO primary supernatant) VH: EVQLVESGGGLVQPGRSLRLSCAASGFTFDDKAMHWVRQVPGKGLEWISGISWNSGTIGYADSVKGRFIISRDNAKNSLYLQMNSLRAEDTALYYCAKDGDTSGWYWYGLDVWGQGTTVTVSS VL: EIVLTQSPATLSLSPGERATLSCRASQSVSSYLAWYQQKPGQAPRLLIHDVSNRATGIPARFSGSGSGTDFTLTISSLEPEDFVVYYCQQRSDWPITFGQGTRLEIKR
Output line: 999
